Test: Cmax in rabbit at 10 mg/kg, po
Assay type: ADME, organism-based, Oryctolagus cuniculus
Parameters: dose 10 mg/kg, route oral
Details: in vivo
ATTRIBUTE_MEASURED: Cmax (ng/mL)
One number for each entry, in ng/mL.

Please fill in: Cmax reported for `COc1cccc(CNC(=O)c2nc3ccc(F)c(OCCc4ccc(C(=O)[O-])cc4)c3c(=O)[nH]2)c1.[Na+]` = 2290

###

Assay: AUC in rat at 10 mg/kg, po
Assay type: ADME, organism-based
Parameters: dose 10 mg/kg, route oral
Settings: plasma
ATTRIBUTE_MEASURED: AUC
In your response, put the unit directly after the numeric value.

Input `COc1cccc(CNC(=O)c2nc3ccc(F)c(OCCc4ccc(C(=O)[O-])cc4)c3c(=O)[nH]2)c1.[Na+]` . Output AUC: 1600 ng·h/mL

###

Tested on: Macaca fascicularis
Assay: Tmax in monkey at 1 mg/kg, po
Details: cynomolgus monkey, in vivo
ATTRIBUTE_MEASURED: Tmax

Recorded Tmax (compound `COc1cccc(CNC(=O)c2nc3ccc(F)c(OCCc4ccc(C(=O)[O-])cc4)c3c(=O)[nH]2)c1.[Na+]` ): 2.8 h

###

Test system: Liver microsome
Test: Metabolic stability in rat liver microsomes
Type: ADME
ATTRIBUTE_MEASURED: Microsomal clearance (µL/min/mg)
Numbers only, in µL/min/mg.

COc1cccc(CNC(=O)c2nc3ccc(F)c(OCCc4ccccc4)c3c(=O)[nH]2)c1 ... 150
COc1cccc(CNC(=O)c2nc3cccc(OCCc4ccccc4)c3c(=O)[nH]2)c1 ... 170
COc1cccc(CNC(=O)c2nc3ccc(F)c(OCCc4ccc(N)cc4)c3c(=O)[nH]2)c1 ... 140
COc1cccc(CNC(=O)c2nc3ccc(F)c(OCCc4ccc(C(=O)O)cc4)c3c(=O)[nH]2)c1 ... 70

Item: `COc1cccc(CNC(=O)c2nc3ccc(F)c(OCCc4ccc(F)cc4)c3c(=O)[nH]2)c1` | System: Liver microsome | Microsomal clearance: 180

###

Experiment: Tmax in dog at 10 mg/kg, po
Assay type: ADME, organism-based, Canis lupus familiaris
Set-up: dose 10 mg/kg, route oral
Conditions: in vivo
ATTRIBUTE_MEASURED: Tmax (h)
Numbers only, in h.

Measured Tmax of `COc1cccc(CNC(=O)c2nc3ccc(F)c(OCCc4ccc(C(=O)[O-])cc4)c3c(=O)[nH]2)c1.[Na+]` : 1.7

###

Assay: Tmax in guinea pig at 3 mg/kg, po
Type: ADME, organism-based, Cavia porcellus
Parameters: dose 3 mg/kg, route oral
Settings: in vivo
ATTRIBUTE_MEASURED: Tmax (min)
Numbers only, in min.

For this compound ( `COc1cccc(CNC(=O)c2nc3ccc(F)c(OCCc4ccc(C(=O)[O-])cc4)c3c(=O)[nH]2)c1.[Na+]` ), measured Tmax is 30

###

Tested on: Macaca fascicularis
Assay: Total clearance in monkey at 1 mg/kg, iv
Settings: cynomolgus monkey, in vivo
ATTRIBUTE_MEASURED: clearance (mL/min/kg)
Give bare numbers, in mL/min/kg.

Bench note, Macaca fascicularis: `COc1cccc(CNC(=O)c2nc3ccc(F)c(OCCc4ccc(C(=O)[O-])cc4)c3c(=O)[nH]2)c1.[Na+]` , clearance reads 20.9

###

Target: Interstitial collagenase (Homo sapiens, UniProt P03956)
Sequence (P03956 whole entry): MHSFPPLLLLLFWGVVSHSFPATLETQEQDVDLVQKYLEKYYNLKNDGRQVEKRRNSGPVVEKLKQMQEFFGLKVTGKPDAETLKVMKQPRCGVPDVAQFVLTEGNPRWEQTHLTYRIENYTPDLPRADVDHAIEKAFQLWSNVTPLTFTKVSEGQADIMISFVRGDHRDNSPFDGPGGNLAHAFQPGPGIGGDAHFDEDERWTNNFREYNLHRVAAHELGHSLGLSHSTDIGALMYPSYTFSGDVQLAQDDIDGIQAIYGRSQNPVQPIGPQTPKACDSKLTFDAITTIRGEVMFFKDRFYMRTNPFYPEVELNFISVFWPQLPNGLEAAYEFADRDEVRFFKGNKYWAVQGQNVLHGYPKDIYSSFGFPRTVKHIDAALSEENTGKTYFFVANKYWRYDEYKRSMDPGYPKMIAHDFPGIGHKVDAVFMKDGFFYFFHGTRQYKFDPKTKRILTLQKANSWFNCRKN
Test: Inhibition of human recombinant MMP1 using Cy3-PLGLK(Cy5Q)AR-NH2 as substrate after 40 mins by spectrofluorimetry
ATTRIBUTE_MEASURED: IC50

Measured on Interstitial collagenase (Homo sapiens, UniProt P03956), `COc1cccc(CNC(=O)c2nc3ccc(F)c(OCCc4ccc(C(=O)O)cc4)c3c(=O)[nH]2)c1` has a documented IC50 of > 10 µM
